- targetEntity: recombinant PD-1 extracellular domain (ECD) protein (UniProt Q15116 25-170)
- Sequence (Q15116 25-170): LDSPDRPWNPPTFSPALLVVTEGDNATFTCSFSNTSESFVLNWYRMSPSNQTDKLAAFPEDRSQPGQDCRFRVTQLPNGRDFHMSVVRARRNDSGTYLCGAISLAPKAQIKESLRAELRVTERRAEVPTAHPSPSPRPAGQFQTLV
- experimentalDetails: SPR
pKd: −log10 of the molar value.
valueKind: pKd

# annotated cases, reported pKd shown
binder	valueKind	valueReported
AS15883 sdAb (VHH) VHH: QVHLMESGGGSVQAGGSLTLSCAASVFTDSNYCMAWFRQVPGKEREGVAIIDRYGGTMYKDSVKGRFTISKDTAKNILYLQMNSLKLEDTAMYYCAAAGYRGSSCDADSGYWGQGTQVTVSS	pKd	8.56
AS15892 sdAb (VHH) VHH: QIQLVESGGGSVQAGGSLRLSCAASGFTDSSYCGAWFRQVPGKEREGVAIIDRYGGTMYKDSVKGRFTISKDTAKNILYLQMNSLKLEDTAMYYCAAAEYRGSSCDAESGYWGQGTQVTVSS	pKd	8.57
AS15881 sdAb (VHH) VHH: QVQLVESGGGSVQAGGSLRLSCAASGFTDSSYCGAWFRQVPGKEREGVAIIDRYGGTMYKDSVKGRFTISKDTAKNILYLQMNSLKLEDTAMYYCAAAEYRGSSCDAESGYWGQGTQVTVSS	pKd	8.64
AS15872 sdAb (VHH) VHH: QVQLVESGGGLVQPGGSLTLSCAASGFTFSTAAMSWVRQVPEEGLEWVASIDSSGSRTYYAGSVKGRFTISRDNAKNTLYLQLNSLKAEDTAMYYCAKDHMSWLPRGQGTQVTVSS	pKd	7.84

(1) AS15899 sdAb (VHH) VHH: QVQLVESGGGSVQAGGSLRLSCAASGYTAGSLCMGWFRQAPGKEREGVAAIYTGGGSTYYADSVKGRFTISQDNAKNTVYLQMNSLKPEDTAQYYCGAGSREDYCDRGYIYDHWGQGTQVTVSS
(2) AS06962 sdAb (VHH) VHH: QVHLVDSGGGLVQPGGSLRLSCAASGSITSRNTMGWYRQVPGKQRELVALIATFVTHYADSVKGRFTISRDNARKMVFLEMNSLQPEDTGAYYCYVDVSPYWGRGTQVTVSS
Identify the item whose pKd is the smaller number: 1 or 2 Response format: the label of the selected entry.
1

Numbers sourced from patent US20200347135A1.
